Where a name gives a salt, the structure may show the parent alone.
PROPERTY_NAME: melting point

* Clc1ccc2c(c1)CCc1cccnc1C2C1CCN(CCCCCc2c[nH]cn2)CC1 (stereo not shown) (as salt: hydrochloride) | 164 to 170 °C (dec.)
* Clc1ccc2c(c1)CCc1cccnc1C2=C1CCN(CCCCCCc2c[nH]cn2)CC1 (as salt: hydrochloride) (hydrate or solvate) | 162 to 165 °C (dec.)
* Clc1ccc2c(c1)CCc1cccnc1C2N1CCN(Cc2c[nH]cn2)CC1 (racemic) (as salt: HCl) (hydrate or solvate) | 190.5 to 192 °C (dec.)

Q: If you can, please state the reported melting point value of Clc1ccc2c(c1)CCc1cccnc1C2N1CCN(CCCCc2c[nH]cn2)CC1 (stereo not shown) (as salt: HCl) .
Result: 165 to 170 °C (dec.)

###

Measured Ki (H3 receptors (Cavia porcellus))
PROPERTY_NAME: Ki (µM)

- O=C(OCCCCc1c[nH]cn1)N1CCN(C2c3ccc(Cl)cc3CCc3cccnc32)CC1 (centres unmarked): 0.148

1: Clc1ccc2c(c1)CCc1cccnc1C2N1CCN(CCCc2c[nH]cn2)CC1 (centres unmarked)
2: Clc1ccc2c(c1)CCc1cccnc1C2=C1CCN(CCCCCc2c[nH]cn2)CC1
3: Clc1ccc2c(c1)CCc1cccnc1C2C1CCN(Cc2c[nH]cn2)CC1 (single isomer, unassigned) [drawing 61]
4: Clc1ccc2c(c1)CCc1cccnc1C2=C1CCN(CCCc2c[nH]cn2)CC1
Q: Please list these molecules in decreasing order of Ki. Return the labels ranked in the requested order, please.
Result: 4, 1, 3, 2
(4: 0.26 µM, 1: 0.173 µM, 3: 0.091 µM, 2: 0.0265 µM)

###

This document collects Ki values reported for Histamine H1 receptor (Rattus norvegicus, UniProt P31390).
PROPERTY_NAME: Ki (nM)

• Clc1ccc2c(c1)CCc1cccnc1C2=C1CCN(CCCCCc2c[nH]cn2)CC1 = 2.5
• Clc1ccc2c(c1)CCc1cccnc1C2=C1CCN(CCCCCCc2c[nH]cn2)CC1 = 12
• Cn1cnc(CN2CCN(C3c4ccc(Cl)cc4CCc4cccnc43)CC2)c1 (stereo not drawn) = 24

1: Clc1ccc2c(c1)CCc1cccnc1C2C1CCN(CCCCCCc2c[nH]cn2)CC1 (stereo not drawn)
2: Clc1ccc2c(c1)CCc1cccnc1C2C1CCN(Cc2c[nH]cn2)CC1 (single isomer, unassigned) [drawing 61]
3: Clc1ccc2c(c1)CCc1cccnc1C2C1CCN(CCCCc2c[nH]cn2)CC1 (stereo not drawn)
4: Clc1ccc2c(c1)CCc1cccnc1C2N1CCN(CCCCCCc2c[nH]cn2)CC1 (stereo not drawn)
5: Clc1ccc2c(c1)CCc1cccnc1C2C1CCN(Cc2c[nH]cn2)CC1 (single isomer, unassigned) [drawing 60]
Q: Put the items in order so that reported Ki rises from first to last. List labels; respect the requested ordering.
Result: 5, 1, 4, 3, 2

###

- ASSAYED_TARGET: H3 receptors (Cavia porcellus, UniProt Q9JI35)
- Construct: The source of the H3 receptors in this experiment was guinea pig brain; from tissue; host or cells: guinea pig brain membranes
- Sequence (Q9JI35 whole entry): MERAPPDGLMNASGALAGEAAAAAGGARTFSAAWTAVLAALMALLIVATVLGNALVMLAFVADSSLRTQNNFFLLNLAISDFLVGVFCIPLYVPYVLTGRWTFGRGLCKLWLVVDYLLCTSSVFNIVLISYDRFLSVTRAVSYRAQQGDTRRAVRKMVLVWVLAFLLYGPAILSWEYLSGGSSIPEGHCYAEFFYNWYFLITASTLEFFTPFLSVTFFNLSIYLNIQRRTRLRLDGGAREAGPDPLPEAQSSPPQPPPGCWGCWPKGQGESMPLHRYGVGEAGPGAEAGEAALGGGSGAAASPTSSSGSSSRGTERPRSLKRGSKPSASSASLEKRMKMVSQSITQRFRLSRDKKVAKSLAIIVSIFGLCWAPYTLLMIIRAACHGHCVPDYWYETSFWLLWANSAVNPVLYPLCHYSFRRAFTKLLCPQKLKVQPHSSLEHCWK
- EXPERIMENTAL_DETAILS: H3-receptor binding assay (guinea pig brain membranes, [3H]R-α-methyl histamine or [3H]Nα-methyl histamine)
- MEASUREMENT_SETUP: final concentration 2 μg/ml, HCl salt
PROPERTY_NAME: inhibition at 2 µg/mL (%)

# annotated cases, reported inhibition at 2 µg/mL shown
* Clc1ccc2c(c1)CCc1cccnc1C2N1CCN(CCc2c[nH]cn2)CC1 (stereo not drawn) | 53
* O=C(CCc1c[nH]cn1)N1CCC(=C2c3ccc(Cl)cc3CCc3cccnc32)CC1 | 47
* Cn1cnc(CN2CCN(C3c4ccc(Cl)cc4CCc4cccnc43)CC2)c1 (stereo not drawn) | 5

P: O=C(c1c[nH]cn1)N1CCN(C2c3ccc(Cl)cc3CCc3cccnc32)CC1 (stereo not drawn)
Q: O=C(CCc1c[nH]cn1)N1CCN(C2c3ccc(Cl)cc3CCc3cccnc32)CC1 (stereo not drawn)
Q: Looking at recorded values for inhibition at 2 µg/mL, does P or Q come in lower? // return label of chosen record
Result: P
